# ASSAY_OVERVIEW: Human Hepatocyte Stability (Test D)
# Format: in vitro ADME
# MEASUREMENT_SETUP: human, cryopreserved pooled human hepatocytes (LiverPool 10-Donor), geometric mean if run multiple times
Here the recorded hepatocyte CLint at 1 µM is given for each entry.
READOUT_TYPE: hepatocyte CLint at 1 µM (µL/min/1e6 cells)

MOLECULE	READOUT_TYPE	OP	VALUE_REPORTED
COc1cc(F)c(O[C@H]2CC[C@@](C)(C(=O)O)CC2)cc1C(=O)N[C@@H]1[C@H](O)CC[C@@H]1C(=O)Nc1cccc(S(=O)(=O)C(F)(F)F)c1 (racemic)	hepatocyte CLint at 1 µM	=	16
Cc1cc(F)c(O[C@H]2CC[C@@](C)(C(=O)O)CC2)cc1C(=O)N[C@@H]1[C@H]2CC[C@H](C2)[C@@H]1C(=O)NCC1(C)CCC1	hepatocyte CLint at 1 µM	=	15
COc1cc(F)c(O[C@H]2CC[C@@](C)(C(=O)O)CC2)cc1C(=O)Nc1ccc(C)cc1C(=O)NCC1(C)CCC1	hepatocyte CLint at 1 µM	=	4.2
COc1cc(F)c(O[C@H]2CC[C@@H](C(=O)O)CC2)cc1C(=O)N[C@@H]1[C@H]2CC[C@H](C2)[C@@H]1C(=O)NCC(C)(C)C	hepatocyte CLint at 1 µM	=	2.2
COc1cc(F)c(O[C@H]2CC[C@@](C)(C(=O)O)CC2)cc1C(=O)N[C@@H]1[C@H]2CC[C@H](C2)[C@@H]1C(=O)NC12CC(F)(C1)C2	hepatocyte CLint at 1 µM	=	3.4
COc1cc(F)c(-c2cnn(CCC(=O)O)c2)cc1C(=O)N[C@@H]1[C@H]2CC[C@H](C2)[C@@H]1C(=O)Nc1cccc(S(=O)(=O)C(F)(F)F)c1	hepatocyte CLint at 1 µM	=	13
COc1cc(F)c(O[C@H]2CC[C@@H](C(=O)O)CC2)cc1C(=O)N[C@@H]1[C@H]2CC[C@H](C2)[C@@H]1C(=O)NCC1(C)CC1	hepatocyte CLint at 1 µM	=	6.6
COc1cc(F)c(-c2ccc(CCS(N)(=O)=O)cc2)cc1C(=O)N[C@H]1[C@H]2CC[C@H](C2)[C@H]1C(=O)Nc1cccc(S(=O)(=O)C(F)(F)F)c1 (single isomer, unassigned)	hepatocyte CLint at 1 µM	=	8
COc1cc(C#N)c(O[C@H]2CC[C@@](C)(C(=O)O)CC2)cc1C(=O)N[C@@H]1[C@H]2CC[C@H](C2)[C@@H]1C(=O)NC(C)(C)C	hepatocyte CLint at 1 µM	<	1
COc1cc(F)c(-c2ccc(CC(=O)O)cc2)cc1C(=O)N[C@@H]1CCC[C@@H]1C(=O)Nc1cccc(S(=O)(=O)C(F)(F)F)c1	hepatocyte CLint at 1 µM	=	11
COc1cc(F)c(Cc2cn[nH]c2)cc1C(=O)N[C@@H]1[C@H]2CC[C@H](C2)[C@@H]1C(=O)Nc1cccc(S(=O)(=O)C(F)(F)F)c1	hepatocyte CLint at 1 µM	=	78
COc1cc(F)c(-c2cccc(CC(=O)O)c2)cc1C(=O)N[C@H]1[C@@H](C(=O)Nc2cccc(S(=O)(=O)C(F)(F)F)c2)[C@@H]2C=C[C@H]1C2 (racemic)	hepatocyte CLint at 1 µM	=	5
COc1cc(Cl)c(O[C@H]2CC[C@@](C)(C(=O)O)CC2)cc1C(=O)N[C@@H]1[C@H]2CC[C@H](C2)[C@@H]1C(=O)NCC(C)(C)C	hepatocyte CLint at 1 µM	=	2.6

###

# ASSAY_OVERVIEW: Rat Hepatocyte Stability (Test E)
# Format: in vitro ADME
# MEASUREMENT_SETUP: rat, hepatocytes, geometric mean if run multiple times
Parameter threshold = 20 µL/min/1e6 cells. Response is T when hepatocyte CLint meets or exceeds it, else F.

COMPOUND	CAT
COc1cc(C#N)c(O[C@H]2CC[C@@](C)(C(=O)O)CC2)cc1C(=O)N[C@@H]1[C@H]2CC[C@H](C2)[C@@H]1C(=O)NCC1(C)CCCCCC1 [Example 105]	T
COc1cc(F)c(C2=CCC(C(=O)O)CC2)cc1C(=O)N[C@@H]1[C@H]2CC[C@H](C2)[C@@H]1C(=O)Nc1cccc(S(=O)(=O)C(F)(F)F)c1 (mixture of isomers) [Example 267]	F
COc1cc(F)c(-c2cccc(C(=O)O)c2)cc1C(=O)N[C@H]1[C@@H](C(=O)Nc2cccc(S(=O)(=O)C(F)(F)F)c2)[C@@H]2C=C[C@H]1C2 (single isomer, unassigned) [Example 554]	F
COc1cc(C#N)c(O[C@H]2CC[C@@](C)(C(=O)O)CC2)cc1C(=O)N[C@@H]1[C@H]2CC[C@H](C2)[C@@H]1C(=O)NCC1(O)CCCCCC1 [Example 103]	T
COc1cc(F)c(O[C@H]2CC[C@@](C)(C(=O)O)CC2)cc1C(=O)N[C@H]1[C@@H]2CC[C@@H](C2)[C@H]1C(=O)Nc1ccc(F)c(S(F)(F)(F)(F)F)c1 [Example 206]	F
COc1cc(F)c(O[C@H]2CC[C@@H](C(=O)O)CC2)cc1C(=O)N[C@@H]1[C@H]2CC[C@H](C2)[C@@H]1C(=O)Nc1cc(C#N)cc(C(F)(F)F)c1 [Example 191]	F
COc1cc(F)c(O[C@H]2CC[C@@H](C(=O)O)CC2)cc1C(=O)N[C@@H]1[C@H]2CC[C@H](C2)[C@@H]1C(=O)N[C@H](C)C(C)(C)C [Example 200]	F
COc1cc(C#N)c(O[C@H]2CC[C@@](C)(C(=O)O)CC2)cc1C(=O)N[C@@H]1[C@H]2CC[C@H](C2)[C@@H]1C(=O)NCC1(CO)CCCC1 [Example 109]	T
COc1cc(F)c(O[C@H]2CC[C@@H](C(=O)O)CC2)cc1C(=O)N[C@@H]1[C@H]2CC[C@H](C2)[C@@H]1C(=O)Nc1cccc(C(F)F)c1 [Example 10]	T
COc1cc(F)c(-c2ccc(CCC(=O)O)cn2)cc1C(=O)N[C@@H]1[C@H]2CC[C@H](C2)[C@@H]1C(=O)Nc1cccc(S(=O)(=O)C(F)(F)F)c1 [Example 242]	T
COc1cc(C#N)c(O[C@H]2CC[C@@](C)(C(=O)O)CC2)cc1C(=O)N[C@@H]1[C@H]2CC[C@H](C2)[C@@H]1C(=O)NCC1(C#N)CCC1 [Example 93]	F
COc1cc(F)c(O[C@H]2CC[C@@](C)(C(=O)O)CC2)cc1C(=O)NC1C2CCC(C2)C1C(=O)Nc1ccc(F)c(S(F)(F)(F)(F)F)c1 (single isomer, unassigned) [Example 520]	F
COc1cc(C#N)c(O[C@H]2CC[C@@](C)(C(=O)O)CC2)cc1C(=O)NC1C2C=CC(CC2)C1C(=O)NCC1(C)CCC1 (single isomer, unassigned) [Example 540]	F
COc1cc(F)c(O[C@H]2CC[C@@](C)(C(=O)O)CC2)cc1C(=O)N[C@@H]1CCC[C@@H]1C(=O)N[C@H](C)C(C)C [Example 60]	F
COc1cc(C#N)c(O[C@H]2C[C@]3(C2)C[C@H](C(=O)O)C3)cc1C(=O)N[C@@H]1[C@H]2CC[C@H](C2)[C@@H]1C(=O)NCC1(C)CCC1 (single isomer, unassigned) [Example 7]	T
COc1cc(F)c(-c2ncc(CCC(=O)O)cn2)cc1C(=O)N[C@@H]1[C@H]2CC[C@H](C2)[C@@H]1C(=O)Nc1cccc(S(=O)(=O)C(F)(F)F)c1 [Example 323]	T

###

# TESTED_TARGET: human RXFP1 (Homo sapiens, UniProt Q9HBX9)
# Sequence (Q9HBX9 whole entry): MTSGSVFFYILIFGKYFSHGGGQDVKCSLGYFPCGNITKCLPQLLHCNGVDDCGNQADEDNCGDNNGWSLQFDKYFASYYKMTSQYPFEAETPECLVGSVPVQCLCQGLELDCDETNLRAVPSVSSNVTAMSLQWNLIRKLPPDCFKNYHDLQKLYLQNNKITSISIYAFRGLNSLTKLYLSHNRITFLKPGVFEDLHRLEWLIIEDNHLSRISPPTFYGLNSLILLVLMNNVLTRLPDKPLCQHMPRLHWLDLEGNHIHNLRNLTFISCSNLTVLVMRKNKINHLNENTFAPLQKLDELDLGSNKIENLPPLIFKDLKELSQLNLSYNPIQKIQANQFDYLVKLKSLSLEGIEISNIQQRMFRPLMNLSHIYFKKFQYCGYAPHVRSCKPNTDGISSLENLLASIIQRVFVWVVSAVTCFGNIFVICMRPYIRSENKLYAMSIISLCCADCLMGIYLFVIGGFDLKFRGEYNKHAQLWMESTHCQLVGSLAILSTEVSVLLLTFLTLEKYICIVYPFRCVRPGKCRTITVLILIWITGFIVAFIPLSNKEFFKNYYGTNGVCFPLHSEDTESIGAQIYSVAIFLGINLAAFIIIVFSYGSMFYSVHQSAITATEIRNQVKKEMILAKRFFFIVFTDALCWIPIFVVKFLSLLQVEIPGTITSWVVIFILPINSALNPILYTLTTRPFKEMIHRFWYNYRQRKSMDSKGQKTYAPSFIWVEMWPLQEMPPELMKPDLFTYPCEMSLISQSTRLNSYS
# ASSAY_OVERVIEW: RXFP1 Hu cAMP (Test A)
# Assay type: cell-based
# Design: expressed in transfected cells; host or cells: Jump-In T-REx CHO-K1 cells (ThermoFisher), induced with 10 ng/ml doxycycline for 24 h
# MEASUREMENT_SETUP: RXFP1 Hu cAMP; read-out: Test A EC50

COMPOUND	EC50
COc1cc(F)c(-c2ccccc2C(=O)O)cc1C(=O)N[C@H]1[C@@H](C(=O)Nc2cccc(S(=O)(=O)C(F)(F)F)c2)[C@@H]2C=C[C@H]1C2 (racemic) [Example 273]	> 40 µM
COc1cc(F)c(O[C@H]2CC[C@@](C)(C(=O)O)CC2)cc1C(=O)NC1C2C=CC(CC2)C1C(=O)NCC1(C)CCC1 (single isomer, unassigned) [Example 544]	> 40 µM
COc1ccc(Oc2ccccc2C(=O)O)cc1C(=O)N[C@H]1[C@@H](C(=O)Nc2cccc(S(=O)(=O)C(F)(F)F)c2)[C@@H]2C=C[C@H]1C2 (racemic) [Example 429]	> 40 µM
COc1cc(F)c(O[C@H]2CC[C@@H](C(=O)O)CC2)cc1C(=O)N[C@@H]1[C@H]2CC[C@H](C2)[C@@H]1C(=O)NC1CC(F)(F)C1 [Example 33]	> 5 µM
COc1cc(F)c(O[C@H]2CC[C@@H](C(=O)O)CC2)cc1C(=O)N[C@@H]1[C@H]2CC[C@H](C2)[C@@H]1C(=O)NC12CC(C1)C2 [Example 178]	> 2.7 µM
COc1cc(F)c(O[C@H]2C[C@@H]3[C@H](C2)[C@H]3C(=O)O)cc1C(=O)N[C@@H]1[C@H]2CC[C@H](C2)[C@@H]1C(=O)NCC1(C)CCC1 (racemic) [Example 426]	> 40 µM
